Cited source for all entries: patent US7026357B2

Measured melting point by item

{"columns": ["compound", "result"],
 "data": [
  ["Cc1ccc(NC(=O)Nc2cccc(NC3=NCCN3)c2)cc1Cl.Cl", "180 to 185 °C"],
  ["CSc1ccc(NC(=O)Nc2ccc3c(c2)CC(c2c[nH]cn2)C3)cc1.Cl (stereo not drawn)", "243 to 245 °C"],
  ["Cc1ccc(NC(=O)Nc2ccc3c(c2)CC(c2c[nH]cn2)C3)cc1Cl.Cl (stereo not drawn)", "235 to 237 °C"],
  ["Cc1ccc(NC(=O)Nc2cccc(C(C)(C)C3=NCCN3)c2)cc1Cl.Cl", "232 to 233 °C"],
  ["Cc1ccc(NC(=O)Nc2ccc3c(c2)C(c2c[nH]cn2)CCO3)cc1Cl.Cl (stereo not drawn)", "> 260 °C"],
  ["Cc1ccc(NC(=O)Nc2ccc(Cl)c(NC3=NCCN3)c2)cc1Cl.Cl", "255 to 257 °C"]
]}

[Q] So what does the record say about melting point for Cc1ccc(NC(=O)Nc2cccc(N3CCN(CC4COc5ccccc5O4)CC3)c2)cc1C.Cl (stereo not drawn) ?
[A] 228 to 230 °C

[Q] Which melting point reading was recorded for the compound Cl.Cl.O=C(Nc1cccc(N2CCN(CC3COc4ccccc4O3)CC2)c1)N1CCc2c1ccc1ccccc21 (stereo not drawn) ?
[A] 194 to 196 °C

====

readoutLabel: melting point

Look over these answered cases.
{"columns": ["molecule", "melting point"],
 "data": [
  ["Cc1cc2c(cc1Cl)N(C(=O)Nc1ccc(N3CCN(CC4COc5ccccc5O4)CC3)cc1)CC2.Cl.Cl (stereo not shown)", "174 to 176 °C"],
  ["Cc1ccc(NC(=O)Nc2ccc3c(c2)CN(C2=NCCN2)CC3)cc1Cl.Cl", "237 to 239 °C"],
  ["Cc1ccc(NC(=O)Nc2cccc(CC3=NCCN3)c2)cc1Cl.Cl", "227 to 229 °C"]
]}

// below: melting point requested for another molecule
[Q] Quick one: melting point for Cc1ccc(NC(=O)Nc2cccc(N3CCN(CC4COc5ccccc5O4)CC3)c2)cc1Cl.Cl (stereo not shown) ?
[A] 180 to 185 °C
